The measurements presented in this section are drawn from patent US20170022281A1.

TARGET_SYSTEM: T1, murine PRLR (Biacore antigen) (murine, UniProt Q08501 20-229, limits assumed)
T1 construct: also called muPRLR
T1 sequence (looked up): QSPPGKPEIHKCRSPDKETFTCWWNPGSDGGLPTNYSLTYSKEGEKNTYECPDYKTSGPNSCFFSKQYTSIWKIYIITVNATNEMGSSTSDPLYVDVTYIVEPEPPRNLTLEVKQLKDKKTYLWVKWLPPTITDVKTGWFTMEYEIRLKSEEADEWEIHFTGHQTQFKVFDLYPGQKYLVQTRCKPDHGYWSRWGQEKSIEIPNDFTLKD
PROTOCOL_SUMMARY: SPR Biacore
MEASUREMENT_KIND: Kd (nM)

BINDER	MEASUREMENT_KIND	MEASURED
Ab5 (antibody, V domains shown, murine monoclonal, isotype G2a; also called murine Ab5) VH: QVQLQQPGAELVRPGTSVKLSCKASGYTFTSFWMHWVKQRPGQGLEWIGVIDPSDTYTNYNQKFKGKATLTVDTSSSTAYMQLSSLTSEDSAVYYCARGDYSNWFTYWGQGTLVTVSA VL: DVVMTQTPLSLPVSLGDQASISCRSSQRLVHSNGNTYLHWYLQKPGQSPKLLIYKVSNRFSGVPDRFSGSGSGTDFTLKISRVEAEDLGVYFCSQSTHVPWTFGGGTKLEIK	Kd	14.4
chAb6 (antibody, human IgG1, kappa, V domains shown, chimeric, murine variable and human G1/kappa constant regions) VH: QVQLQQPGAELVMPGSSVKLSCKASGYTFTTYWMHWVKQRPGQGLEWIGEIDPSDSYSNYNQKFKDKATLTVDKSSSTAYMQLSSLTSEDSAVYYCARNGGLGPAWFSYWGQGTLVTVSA VL: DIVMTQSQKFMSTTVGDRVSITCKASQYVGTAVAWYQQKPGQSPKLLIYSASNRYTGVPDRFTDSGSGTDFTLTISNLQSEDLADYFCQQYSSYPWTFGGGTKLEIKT	Kd	608
Ab30 (antibody, human IgG1, kappa, V domains shown, humanized from Ab5; G1; also called Ab2 HC.1a and Ab2 LC.1a) VH: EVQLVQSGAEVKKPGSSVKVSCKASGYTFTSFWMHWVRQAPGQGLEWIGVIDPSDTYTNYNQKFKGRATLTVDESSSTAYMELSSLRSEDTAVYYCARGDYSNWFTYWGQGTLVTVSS VL: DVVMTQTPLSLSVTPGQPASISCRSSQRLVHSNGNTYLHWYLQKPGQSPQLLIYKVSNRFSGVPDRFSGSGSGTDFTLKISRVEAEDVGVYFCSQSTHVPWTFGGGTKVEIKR	Kd	40
Ab48 (antibody, human IgG1, kappa, V domains shown, humanized from Ab8; G1; also called Ab3 HC.1a and Ab3 LC.1a) VH: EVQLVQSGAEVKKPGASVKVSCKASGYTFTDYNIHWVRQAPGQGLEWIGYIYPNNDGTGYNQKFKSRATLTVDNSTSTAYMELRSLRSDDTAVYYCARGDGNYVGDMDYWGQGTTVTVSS VL: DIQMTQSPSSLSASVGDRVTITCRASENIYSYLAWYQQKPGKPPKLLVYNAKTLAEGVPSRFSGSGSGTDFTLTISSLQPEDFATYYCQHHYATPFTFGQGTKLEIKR	Kd	453
Ab36 (antibody, human IgG1, kappa, V domains shown, humanized from Ab7; G1; also called Ab4 HC.1 and Ab4 LC.1a) VH: EVQLVQSGAEVKKPGSSVKVSCKASGYTFTSYWIHWVRQAPGQGLEWMGEIDPSDSYTNYNQKFKGRVTITADKSTSTAYMELSSLRSEDTAVYYCARSFFTNWFAYWGQGTLVTVSS VL: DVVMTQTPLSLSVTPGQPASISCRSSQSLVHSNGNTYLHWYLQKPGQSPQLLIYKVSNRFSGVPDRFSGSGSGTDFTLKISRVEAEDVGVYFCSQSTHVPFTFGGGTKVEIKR	Kd	1140
chAb8 (antibody, human IgG1, kappa, V domains shown, chimeric, murine variable and human G1/kappa constant regions) VH: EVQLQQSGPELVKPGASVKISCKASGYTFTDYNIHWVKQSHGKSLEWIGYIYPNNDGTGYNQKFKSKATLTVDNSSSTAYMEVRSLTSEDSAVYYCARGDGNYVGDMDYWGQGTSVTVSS VL: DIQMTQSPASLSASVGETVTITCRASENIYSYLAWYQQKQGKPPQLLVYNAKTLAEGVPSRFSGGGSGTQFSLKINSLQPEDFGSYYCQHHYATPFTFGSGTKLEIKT	Kd	291
